Target: mouse αvβ1 (Mus musculus, UniProt P09055+P43406)
Sequence (P43406 31-988): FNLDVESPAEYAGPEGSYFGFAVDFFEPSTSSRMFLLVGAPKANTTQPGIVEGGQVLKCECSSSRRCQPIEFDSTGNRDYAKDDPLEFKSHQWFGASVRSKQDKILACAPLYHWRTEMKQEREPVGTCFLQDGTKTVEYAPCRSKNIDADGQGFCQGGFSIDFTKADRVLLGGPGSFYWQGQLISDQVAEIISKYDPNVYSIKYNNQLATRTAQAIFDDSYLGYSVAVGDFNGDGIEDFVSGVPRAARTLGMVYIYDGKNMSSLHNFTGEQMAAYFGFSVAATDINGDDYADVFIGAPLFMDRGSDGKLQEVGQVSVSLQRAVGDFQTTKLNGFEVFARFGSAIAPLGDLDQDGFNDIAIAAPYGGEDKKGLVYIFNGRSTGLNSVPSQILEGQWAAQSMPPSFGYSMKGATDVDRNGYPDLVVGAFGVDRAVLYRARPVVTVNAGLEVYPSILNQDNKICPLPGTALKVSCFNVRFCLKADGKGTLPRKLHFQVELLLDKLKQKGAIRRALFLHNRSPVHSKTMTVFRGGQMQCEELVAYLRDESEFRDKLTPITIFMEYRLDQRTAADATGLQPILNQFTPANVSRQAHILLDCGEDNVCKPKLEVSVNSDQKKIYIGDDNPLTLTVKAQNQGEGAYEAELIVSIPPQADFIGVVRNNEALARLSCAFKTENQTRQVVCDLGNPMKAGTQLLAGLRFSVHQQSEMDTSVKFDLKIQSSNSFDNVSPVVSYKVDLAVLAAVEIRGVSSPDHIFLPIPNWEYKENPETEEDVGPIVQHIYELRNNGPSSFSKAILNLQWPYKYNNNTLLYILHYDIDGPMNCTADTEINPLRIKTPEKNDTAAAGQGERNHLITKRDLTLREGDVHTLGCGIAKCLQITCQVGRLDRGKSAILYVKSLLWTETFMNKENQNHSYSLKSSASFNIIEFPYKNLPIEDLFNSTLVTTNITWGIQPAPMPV
Sequence (P09055 21-728): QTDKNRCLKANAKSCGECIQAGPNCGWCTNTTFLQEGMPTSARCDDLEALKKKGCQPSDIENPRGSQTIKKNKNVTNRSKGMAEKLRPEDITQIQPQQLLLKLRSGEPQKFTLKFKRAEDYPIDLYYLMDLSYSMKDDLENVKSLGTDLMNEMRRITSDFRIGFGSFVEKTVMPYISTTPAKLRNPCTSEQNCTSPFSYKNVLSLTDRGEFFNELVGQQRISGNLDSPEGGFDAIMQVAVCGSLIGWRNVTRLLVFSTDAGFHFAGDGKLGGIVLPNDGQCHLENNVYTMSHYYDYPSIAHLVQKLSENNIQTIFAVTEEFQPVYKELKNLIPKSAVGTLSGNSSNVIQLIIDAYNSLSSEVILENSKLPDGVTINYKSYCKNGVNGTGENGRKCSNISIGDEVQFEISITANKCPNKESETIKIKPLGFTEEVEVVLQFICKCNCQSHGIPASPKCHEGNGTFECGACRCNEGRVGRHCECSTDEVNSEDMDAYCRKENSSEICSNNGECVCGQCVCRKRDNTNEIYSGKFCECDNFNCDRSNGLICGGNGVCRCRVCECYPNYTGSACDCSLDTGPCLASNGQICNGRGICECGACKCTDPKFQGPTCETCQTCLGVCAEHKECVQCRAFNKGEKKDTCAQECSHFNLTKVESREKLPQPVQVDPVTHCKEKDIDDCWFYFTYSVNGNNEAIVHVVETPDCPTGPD
Assay: AlphaLISA integrin-ligand binding assay
Settings: Fig. 4B; read-out: IC50 Mouse integrin AlphaLISA assays: mαvβ1
measurement-label: IC50 (nM)

{"compound": "COc1ccc(C(CC(=O)O)N2CCN(CCCc3ccc4c(n3)NCCC4)C2=O)cn1 (stereo not shown) [MK-0429]", "measurement-label": "IC50", "recorded-value": 1.3}

* * *

Target: human αvβ5 (Homo sapiens, UniProt P06756+P18084)
Construct: hαV 1 992; hβ5 1 719; made in house; host or cells: Expi293
Sequence (P06756 31-992): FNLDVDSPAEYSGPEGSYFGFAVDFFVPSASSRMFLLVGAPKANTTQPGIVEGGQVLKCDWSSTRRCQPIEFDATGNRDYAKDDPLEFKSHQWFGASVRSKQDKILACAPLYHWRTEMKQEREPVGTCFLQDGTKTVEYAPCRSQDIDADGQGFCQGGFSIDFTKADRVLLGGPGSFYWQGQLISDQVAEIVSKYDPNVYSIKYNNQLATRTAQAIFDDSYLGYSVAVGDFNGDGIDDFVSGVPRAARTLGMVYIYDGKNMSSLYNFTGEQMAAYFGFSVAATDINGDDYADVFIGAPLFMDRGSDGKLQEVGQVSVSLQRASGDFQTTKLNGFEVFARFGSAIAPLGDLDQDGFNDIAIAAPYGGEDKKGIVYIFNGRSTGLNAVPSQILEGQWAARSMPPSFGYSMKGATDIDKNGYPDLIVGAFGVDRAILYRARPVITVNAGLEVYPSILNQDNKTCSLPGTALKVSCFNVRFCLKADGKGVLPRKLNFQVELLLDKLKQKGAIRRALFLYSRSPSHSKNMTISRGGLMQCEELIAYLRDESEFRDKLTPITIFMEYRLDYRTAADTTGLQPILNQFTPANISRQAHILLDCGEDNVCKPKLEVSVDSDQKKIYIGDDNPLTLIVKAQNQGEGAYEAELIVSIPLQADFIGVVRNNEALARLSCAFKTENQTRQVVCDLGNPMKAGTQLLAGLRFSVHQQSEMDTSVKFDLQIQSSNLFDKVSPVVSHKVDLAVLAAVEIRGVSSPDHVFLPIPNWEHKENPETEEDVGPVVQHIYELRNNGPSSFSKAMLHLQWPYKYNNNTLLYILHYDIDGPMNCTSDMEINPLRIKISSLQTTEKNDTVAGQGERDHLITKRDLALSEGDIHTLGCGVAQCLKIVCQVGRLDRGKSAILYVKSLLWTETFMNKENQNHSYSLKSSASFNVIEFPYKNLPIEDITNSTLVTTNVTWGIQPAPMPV
Sequence (P18084 24-719): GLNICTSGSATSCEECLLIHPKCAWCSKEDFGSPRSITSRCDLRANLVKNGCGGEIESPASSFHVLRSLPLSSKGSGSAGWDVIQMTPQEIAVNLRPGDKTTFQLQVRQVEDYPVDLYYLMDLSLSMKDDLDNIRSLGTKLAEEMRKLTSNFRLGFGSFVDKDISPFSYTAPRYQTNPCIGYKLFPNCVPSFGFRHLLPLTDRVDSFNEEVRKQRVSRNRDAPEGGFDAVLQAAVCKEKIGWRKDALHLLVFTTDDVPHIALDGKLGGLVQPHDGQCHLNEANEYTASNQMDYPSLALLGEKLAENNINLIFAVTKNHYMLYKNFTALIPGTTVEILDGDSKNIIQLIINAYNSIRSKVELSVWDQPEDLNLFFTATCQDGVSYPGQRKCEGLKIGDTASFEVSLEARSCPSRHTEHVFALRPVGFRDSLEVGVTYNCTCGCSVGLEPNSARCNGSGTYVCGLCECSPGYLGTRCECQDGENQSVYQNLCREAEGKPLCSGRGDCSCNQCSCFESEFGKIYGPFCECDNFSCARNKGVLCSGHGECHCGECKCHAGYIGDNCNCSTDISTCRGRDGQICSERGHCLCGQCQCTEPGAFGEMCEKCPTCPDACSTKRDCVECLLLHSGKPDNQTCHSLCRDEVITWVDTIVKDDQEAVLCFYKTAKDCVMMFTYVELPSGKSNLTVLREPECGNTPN
Test: AlphaLISA integrin-ligand binding assay
Assay type: biochemical
Conditions: Fig. 4B; read-out: IC50 Human integrin AlphaLISA assays: hαvβ5
measurement-label: IC50 (nM)

{"compound": "COc1ccc(C(CC(=O)O)N2CCN(CCCc3ccc4c(n3)NCCC4)C2=O)cn1 (stereo not shown)", "scale-unit": "nM", "recorded-value": 2.9}

* * *

Target: human αvβ6 (Homo sapiens, UniProt P06756+P18564)
Sequence (P06756 31-992): as the sequence (P06756 31-992) above
Sequence (P18564 22-709): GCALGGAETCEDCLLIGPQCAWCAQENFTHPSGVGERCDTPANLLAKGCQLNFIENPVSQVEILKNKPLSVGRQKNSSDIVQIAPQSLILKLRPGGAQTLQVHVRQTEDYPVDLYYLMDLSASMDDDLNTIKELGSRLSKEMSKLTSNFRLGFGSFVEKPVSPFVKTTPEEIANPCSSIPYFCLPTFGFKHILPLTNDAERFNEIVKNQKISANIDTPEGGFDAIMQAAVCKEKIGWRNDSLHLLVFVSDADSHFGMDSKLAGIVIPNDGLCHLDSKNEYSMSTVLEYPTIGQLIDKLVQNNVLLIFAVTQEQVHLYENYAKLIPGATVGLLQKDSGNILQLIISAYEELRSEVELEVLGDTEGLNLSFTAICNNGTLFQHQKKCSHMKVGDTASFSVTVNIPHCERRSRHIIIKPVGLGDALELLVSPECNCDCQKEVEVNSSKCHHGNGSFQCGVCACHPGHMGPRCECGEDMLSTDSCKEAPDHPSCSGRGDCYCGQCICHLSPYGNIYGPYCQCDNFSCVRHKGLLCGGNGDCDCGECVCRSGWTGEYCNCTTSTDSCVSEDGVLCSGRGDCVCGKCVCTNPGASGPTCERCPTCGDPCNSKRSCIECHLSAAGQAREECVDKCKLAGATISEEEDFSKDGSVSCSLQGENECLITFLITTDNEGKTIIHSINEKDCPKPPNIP
Assay: AlphaLISA integrin-ligand binding assay
Format: biochemical
Parameters: hαV 1 992; hβ6 1 709; made in house; host or cells: Expi293
Conditions: Fig. 3D, assay optimisation; read-out: IC50 human αvβ6 AlphaLISA
pIC50: −log10 of the molar value.
measurement-label: pIC50

{"molecule": "COc1ccc(C(CC(=O)O)N2CCN(CCCc3ccc4c(n3)NCCC4)C2=O)cn1 (stereo not shown)", "recorded-value": 8.42}
